- Tested on: Staphylococcus aureus S13E
- experiment: standard agar-dilution assay (MIC)
- Assay type: cell-based
- assay_setup: unit assumed
reported_metric: MIC (µg/mL)

compound="CCC1OC(=O)CC(O)C(C)C(OC2OC(C)C(OC3CC(C)(O)C(O)C(C)O3)C(N(C)C)C2OC(C)=O)C(CC=O)CC(C)C(=O)C=CC(C)=CC1COC(=O)C=Cc1ccccc1 (centres unmarked)" system_under_test="Staphylococcus aureus S13E" reported_metric=MIC readout_units=µg/mL quantitative_readout=1
compound="CCC1OC(=O)CC(O)C(C)C(OC2OC(C)C(OC3CC(C)(O)C(O)C(C)O3)C(N(C)C)C2OC(C)=O)C(CC=O)CC(C)C(=O)C=CC(C)=CC1COC(=O)C12CC3CC(CC(C3)C1)C2 (centres unmarked)" system_under_test="Staphylococcus aureus S13E" reported_metric=MIC readout_units=µg/mL quantitative_readout=2
compound="CCC1OC(=O)CC(O)C(C)C(OC2OC(C)C(OC3CC(C)(O)C(O)C(C)O3)C(N(C)C)C2OC(C)=O)C(CC=O)CC(C)C(=O)C=CC(C)=CC1COC(=O)C(C)(C)C (centres unmarked)" system_under_test="Staphylococcus aureus S13E" reported_metric=MIC readout_units=µg/mL quantitative_readout=0.5
compound="CCC(=O)OCC1C=C(C)C=CC(=O)C(C)CC(CC=O)C(OC2OC(C)C(OC3CC(C)(O)C(O)C(C)O3)C(N(C)C)C2OC(=O)CC)C(C)C(O)CC(=O)OC1CC (centres unmarked)" system_under_test="Staphylococcus aureus S13E" reported_metric=MIC readout_units=µg/mL quantitative_readout=1
compound="CCC1OC(=O)CC(O)C(C)C(OC2OC(C)C(OC3CC(C)(O)C(O)C(C)O3)C(N(C)C)C2O)C(CC=O)CC(C)C(=O)C=CC(C)=CC1COC(=O)OC (centres unmarked)" system_under_test="Staphylococcus aureus S13E" reported_metric=MIC readout_units=µg/mL quantitative_readout=0.25

====

Readings of MIC for the listed compounds
- System: Streptococcus sp. 80
reported_metric: MIC (µg/mL)

compound="CCC1OC(=O)CC(O)C(C)C(OC2OC(C)C(OC3CC(C)(O)C(O)C(C)O3)C(N(C)C)C2O)C(CC=O)CC(C)C(=O)C=CC(C)=CC1COC(=O)Cc1ccccc1 (centres unmarked) [Compound 10, 23-O-Phenylacetyl-DMT]" system_under_test="Streptococcus sp. 80" readout_units=µg/mL qualifier_operator== quantitative_readout=0.097
compound="CCC1OC(=O)CC(O)C(C)C(OC2OC(C)C(OC3CC(C)(O)C(O)C(C)O3)C(N(C)C)C2OC(C)=O)C(CC=O)CC(C)C(=O)C=CC(C)=CC1COC(=O)CCCCc1ccccc1 (centres unmarked) [Compound 18]" system_under_test="Streptococcus sp. 80" readout_units=µg/mL qualifier_operator== quantitative_readout=0.78
compound="CCC1OC(=O)CC(O)C(C)C(OC2OC(C)C(OC3CC(C)(O)C(O)C(C)O3)C(N(C)C)C2O)C(CC=O)CC(C)C(=O)C=CC(C)=CC1COC(=O)n1ccnc1 (centres unmarked) [Compound 22]" system_under_test="Streptococcus sp. 80" readout_units=µg/mL qualifier_operator== quantitative_readout=1.56
compound="CCC1OC(=O)CC(O)C(C)C(OC2OC(C)C(OC3CC(C)(O)C(O)C(C)O3)C(N(C)C)C2OC(C)=O)C(CC=O)CC(C)C(=O)C=CC(C)=CC1COC(=O)C12CC3CC(CC(C3)C1)C2 (centres unmarked) [Compound 23]" system_under_test="Streptococcus sp. 80" readout_units=µg/mL qualifier_operator=< quantitative_readout=0.78
compound="CCC1OC(=O)CC(O)C(C)C(OC2OC(C)C(OC3CC(C)(O)C(O)C(C)O3)C(N(C)C)C2OC(C)=O)C(CC=O)CC(C)C(=O)C=CC(C)=CC1COC(=O)Cc1ccccc1 (centres unmarked) [Compound 9, 2'-O-Acetyl-23-O-phenylacetyl-DMT]" system_under_test="Streptococcus sp. 80" readout_units=µg/mL qualifier_operator=≤ quantitative_readout=0.048

Cited source: patent US4396613A
